CC50 at 3 days values for the compounds below.
Test: Cytotoxicity in HeLa cells, ATP content (ATPlite kit)
Type: cell-based
Details: human; HeLa cells, three days incubation, ATP content; read-out: Toxicity CC50

[
  {
    "givenSmiles": "CC(C)CCn1c(Cn2c(=O)n(C3CC3)c3ccncc32)c(C(=O)O)c2ccccc21",
    "qualifierOperator": ">",
    "CC50 at 3 days (µM)": 98.4
  },
  {
    "givenSmiles": "CCOC(=O)c1c(Cn2c(=O)n(C3CC3)c3ccncc32)n(CCC(C)C)c2ccccc12",
    "qualifierOperator": "=",
    "CC50 at 3 days (µM)": 32.1
  },
  {
    "givenSmiles": "CC(C)CCn1c(Cn2c(=O)n(C3CC3)c3ccncc32)c(C(N)=O)c2ccccc21",
    "qualifierOperator": ">",
    "CC50 at 3 days (µM)": 24.6
  },
  {
    "givenSmiles": "O=c1n(Cc2cc3cc(Br)ccc3n2CCCCO)c2cnccc2n1C1CC1",
    "qualifierOperator": "=",
    "CC50 at 3 days (µM)": 48.7
  },
  {
    "givenSmiles": "CC(C)CCn1c(Cn2c(=O)n(C3CC3)c3ccncc32)c(C(=O)NS(C)(=O)=O)c2ccccc21",
    "qualifierOperator": ">",
    "CC50 at 3 days (µM)": 9.84
  }
]

###

Tested on: rgRSV224 virus
Experiment: microbe, parasite or virus in culture
Assay type: cell-based, respiratory syncytial virus (RSV)
Conditions: ratio of HeLa CC50 to rgRSV224 EC50
Measured SI CC50/EC50 by item
valueKind: SI CC50/EC50

[
  {
    "compound": "CS(=O)(=O)CCCn1c(Cn2c(=O)n(C3CC3)c3ccc(F)cc32)cc2cc(F)ccc21 [Compound P27]",
    "qualifierOperator": "=",
    "valueObserved": 664
  },
  {
    "compound": "CS(=O)(=O)CCCn1c(Cn2c(=O)n(C3CC3)c3ccncc32)cc2ccccc21 [Compound P25]",
    "qualifierOperator": ">",
    "valueObserved": 10945
  },
  {
    "compound": "O=c1n(Cc2cc3cc(Cl)ccc3n2CCCC(F)(F)F)c2cnccc2n1C1COC1 [Compound P67]",
    "qualifierOperator": ">",
    "valueObserved": 85461
  },
  {
    "compound": "CS(=O)(=O)CCCn1c(Cn2c(=O)n(C3CC3)c3ccccc32)cc2cc(F)ccc21 [Compound P26]",
    "qualifierOperator": "=",
    "valueObserved": 2270
  },
  {
    "compound": "O=c1n(Cc2cc3cc(F)ccc3n2CCCCF)c2ccccc2n1C1CC1 [Compound P34]",
    "qualifierOperator": ">",
    "valueObserved": 398
  },
  {
    "compound": "O=c1n(Cc2cc3cc(Br)ccc3n2CCCC(F)(F)F)c2ccccc2n1C1CC1 [Compound P31]",
    "qualifierOperator": "=",
    "valueObserved": 3446
  },
  {
    "compound": "CC(C)(O)CCCn1c(Cn2c(=O)n(C3CC3)c3ccncc32)cc2cc(Cl)ccc21 [Compound P72]",
    "qualifierOperator": "=",
    "valueObserved": 24273
  },
  {
    "compound": "CS(=O)(=O)CCCn1c(Cn2c(=O)n(C3COC3)c3ccncc32)cc2ccccc21 [Compound P24]",
    "qualifierOperator": ">",
    "valueObserved": 3065
  }
]

###

Quick list: CC50 at 3 days per entry.
Assay: Cytotoxicity in HeLa cells, ATP content (ATPlite kit)
Assay type: cell-based
Conditions: human

[
  {
    "compound": "O=c1n(Cc2cc3cc(F)ccc3n2CCCCO)c2cnccc2n1C1CC1 [Compound 9]",
    "CC50 at 3 days": "50.3 µM"
  },
  {
    "compound": "CS(=O)(=O)CCCn1c(Cn2c(=O)n(C3COC3)c3ccncc32)cc2cc(Br)ccc21 [Compound 5]",
    "CC50 at 3 days": "> 9.84 µM"
  },
  {
    "compound": "COc1ccc2c(c1)cc(Cn1c(=O)n(C3CC3)c3ccncc31)n2CCCCO [Compound 10]",
    "CC50 at 3 days": "> 9.84 µM"
  },
  {
    "compound": "N#CCCCCn1c(Cn2c(=O)n(C3CC3)c3ccncc32)cc2cc(Br)ccc21 [Compound 3]",
    "CC50 at 3 days": "> 9.84 µM"
  },
  {
    "compound": "CC(C)CCn1c(Cn2c(=O)n(C3CC3)c3ccncc32)cc2ccccc21 [Compound 12]",
    "CC50 at 3 days": "65.5 µM"
  },
  {
    "compound": "CS(=O)(=O)CCCn1c(Cn2c(=O)n(C3CC3)c3ccncc32)cc2cc(Br)ccc21 [Compound 2]",
    "CC50 at 3 days": "> 9.84 µM"
  },
  {
    "compound": "CS(=O)(=O)CCCn1c(Cn2c(=O)n(C3CC3)c3ccc(F)cc32)cc2cc(Br)ccc21 [Compound 6]",
    "CC50 at 3 days": "> 9.84 µM"
  },
  {
    "compound": "O=c1n(Cc2c(I)c3ccc(Cl)cc3n2CCCCO)c2cnccc2n1C1CC1 [Compound 15]",
    "CC50 at 3 days": "> 9.84 µM"
  },
  {
    "compound": "O=c1n(Cc2cc3cc(Cl)ccc3n2CCCCO)c2cnccc2n1C1CC1 [Compound 7]",
    "CC50 at 3 days": "47.6 µM"
  },
  {
    "compound": "CS(=O)(=O)CCCn1c(Cn2c(=O)n(C3CC3)c3ccc(F)cc32)cc2cc(Cl)ccc21 [Compound 8]",
    "CC50 at 3 days": "> 9.84 µM"
  },
  {
    "compound": "O=c1n(Cc2cc3ccc(Cl)cc3n2CCCCO)c2cnccc2n1C1CC1 [Compound 16]",
    "CC50 at 3 days": "> 9.84 µM"
  },
  {
    "compound": "CS(=O)(=O)CCCn1c(Cn2c(=O)n(C3CC3)c3ccncc32)cc2cc(Cl)ccc21 [Compound 1]",
    "CC50 at 3 days": "> 9.84 µM"
  }
]

###

Test system: rgRSV224 virus
Test: microbe, parasite or virus in culture
Type: cell-based, respiratory syncytial virus (RSV)
Settings: ratio of HeLa CC50 to rgRSV224 EC50

[
  {
    "givenSmiles": "NC(=O)c1c(Cn2c(=O)n(C3CC3)c3ccc(F)cc32)n(CCCCF)c2ccc(Cl)cc12",
    "SI CC50/EC50": ">89869"
  },
  {
    "givenSmiles": "O=c1n(Cc2cc3cc(Cl)ccc3n2CCCCF)c2cnccc2n1C1COC1",
    "SI CC50/EC50": 21581
  },
  {
    "givenSmiles": "CS(=O)(=O)CCCn1c(Cn2c(=O)n(CC(F)(F)F)c3ccncc32)cc2cc(Cl)ccc21",
    "SI CC50/EC50": ">258982"
  },
  {
    "givenSmiles": "CS(=O)(=O)CCCn1c(Cn2c(=O)n(C3COC3)c3ccncc32)cc2cc(F)ccc21",
    "SI CC50/EC50": ">4200"
  },
  {
    "givenSmiles": "O=C(NC1CC1)c1c(Cn2c(=O)n(C3CC3)c3ccncc32)n(CCCC(F)(F)F)c2ccc(Cl)cc12",
    "SI CC50/EC50": 249
  },
  {
    "givenSmiles": "N#CCCCn1c(Cn2c(=O)n(CC(F)(F)F)c3ccncc32)cc2cc(Cl)ccc21",
    "SI CC50/EC50": 81459
  },
  {
    "givenSmiles": "CS(=O)(=O)CCCn1c(Cn2c(=O)n(C3CC3)c3ccccc32)cc2cc(Br)ccc21",
    "SI CC50/EC50": 6322
  },
  {
    "givenSmiles": "CS(=O)(=O)CCCn1c(Cn2c(=O)n(CC(F)(F)F)c3ccc(F)cc32)cc2cc(Cl)ccc21",
    "SI CC50/EC50": 5176
  }
]

###

Tested on: rgRSV224 virus
Test: microbe, parasite or virus in culture
Assay type: cell-based, respiratory syncytial virus (RSV)
Conditions: ratio of HeLa CC50 to rgRSV224 EC50
Where SI CC50/EC50 equals or exceeds 20000, the correct label is 1.0; where it does not, the label is 0.0.

[
  {
    "givenSmiles": "CC(C)(O)CCCn1c(Cn2c(=O)n(C3COC3)c3ccncc32)cc2cc(Cl)ccc21",
    "experimentalTarget": "rgRSV224 virus",
    "category": 0.0
  },
  {
    "givenSmiles": "O=c1n(Cc2cc3cc(Br)ccc3n2CCCC(F)(F)F)c2cnccc2n1C1CC1",
    "experimentalTarget": "rgRSV224 virus",
    "category": 1.0
  },
  {
    "givenSmiles": "NC(=O)c1c(Cn2c(=O)n(C3CC3)c3ccc(F)cc32)n(CCCC(F)(F)F)c2ccc(Cl)cc12",
    "experimentalTarget": "rgRSV224 virus",
    "category": 1.0
  },
  {
    "givenSmiles": "CS(=O)(=O)CCCn1c(Cn2c(=O)n(C3CC3)c3ccccc32)cc2ccccc21",
    "experimentalTarget": "rgRSV224 virus",
    "category": 0.0
  },
  {
    "givenSmiles": "N#CCCCn1c(Cn2c(=O)n(C3CC3)c3ccccc32)cc2cc(Cl)ccc21",
    "experimentalTarget": "rgRSV224 virus",
    "category": 0.0
  },
  {
    "givenSmiles": "CS(=O)(=O)CCCn1c(Cn2c(=O)n(C3CC3)c3ccncc32)cc2cc(F)ccc21",
    "experimentalTarget": "rgRSV224 virus",
    "category": 0.0
  },
  {
    "givenSmiles": "CS(=O)(=O)CCCn1c(Cn2c(=O)n(C3CC3)c3ccccc32)cc2cc(Cl)ccc21",
    "experimentalTarget": "rgRSV224 virus",
    "category": 1.0
  },
  {
    "givenSmiles": "CS(=O)(=O)CCCn1c(Cn2c(=O)n(C3CC3)c3ccncc32)cc2cc(C(F)(F)F)ccc21",
    "experimentalTarget": "rgRSV224 virus",
    "category": 0.0
  },
  {
    "givenSmiles": "O=c1n(Cc2cc3cc(Cl)ccc3n2CCCCF)c2cnccc2n1C1CC1",
    "experimentalTarget": "rgRSV224 virus",
    "category": 1.0
  },
  {
    "givenSmiles": "O=c1n(Cc2cc3cc(Cl)ccc3n2CCCN2CCOCC2)c2cnccc2n1C1CC1",
    "experimentalTarget": "rgRSV224 virus",
    "category": 0.0
  },
  {
    "givenSmiles": "N#CCCCn1c(Cn2c(=O)n(C3CC3)c3ccncc32)cc2cc(Cl)ccc21",
    "experimentalTarget": "rgRSV224 virus",
    "category": 1.0
  },
  {
    "givenSmiles": "O=c1n(Cc2cc3cc(F)ccc3n2CCCCF)c2cnccc2n1C1CC1",
    "experimentalTarget": "rgRSV224 virus",
    "category": 0.0
  },
  {
    "givenSmiles": "COc1ccc2c(c1)n(Cc1cc3cc(F)ccc3n1CCCS(C)(=O)=O)c(=O)n2C1CC1",
    "experimentalTarget": "rgRSV224 virus",
    "category": 0.0
  },
  {
    "givenSmiles": "CC(C)(O)CCCn1c(Cn2c(=O)n(CC(F)(F)F)c3ccncc32)cc2cc(Cl)ccc21",
    "experimentalTarget": "rgRSV224 virus",
    "category": 0.0
  },
  {
    "givenSmiles": "NC(=O)c1c(Cn2c(=O)n(C3CC3)c3ccncc32)n(CCCCF)c2ccc(Cl)cc12",
    "experimentalTarget": "rgRSV224 virus",
    "category": 1.0
  }
]
